- System: Plasma
- method description: Anticoagulant potency in human plasma assessed as concentration required to double activated partial thromboplastin time
- Type: functional, cell-free
Provide the recorded Activity for the entries that follow.
One number for each entry, in µM.

Observe how each entry below is paired with its result.
Cc1ncn(CC(=O)NC(C)(C)C)c1Cn1c(C)ccc(NS(=O)(=O)Cc2ccccc2)c1=O = 0.52
Cc1ncn(CC(=O)NN2CC(O)C2)c1Cn1c(C)ccc(NS(=O)(=O)Cc2ccccc2)c1=O = 0.66

Could you now look at the following molecule, please?
Can you look up Activity on Plasma for Cc1ncn(CC(=O)NN2CCCCC2)c1Cn1c(C)ccc(NS(=O)(=O)Cc2ccccc2)c1=O ? 0.37

###

// endpoint pKi / system Prothrombin (Homo sapiens)
Answers are plain numbers, as −log10 of the molar value.

Cc1ncn(CC(=O)NC(C)(C)CN)c1Cn1c(C)ccc(NS(=O)(=O)Cc2ccccc2)c1=O = 9.52
Cc1ncn(CC(=O)NC2CCCNC2)c1Cn1c(C)ccc(NS(=O)(=O)Cc2ccccc2)c1=O (stereo not given) = 9.51
Cc1ncn(CC(=O)OC(C)(C)C)c1Cn1c(C)ccc(NS(=O)(=O)Cc2ccccc2)c1=O = 9.32

For each of the compounds below, state pKi.
1. Cc1ncn(CC(=O)NCCO)c1Cn1c(C)ccc(NS(=O)(=O)Cc2ccccc2)c1=O
2. Cc1ncn(CC(=O)NC2CC(N)C2)c1Cn1c(C)ccc(NS(=O)(=O)Cc2ccccc2)c1=O (stereo not given)
3. Cc1ncn(CC(=O)NN2CC(O)C2)c1Cn1c(C)ccc(NS(=O)(=O)Cc2ccccc2)c1=O

1. 8.62
2. 8.52
3. 8.55

For each of the compounds below, state pKi.
1. Cc1ncn(CC(=O)NC2CC2)c1Cn1c(C)ccc(NS(=O)(=O)Cc2ccccc2)c1=O
2. Cc1ncn(CC(=O)NCC(C)(C)N)c1Cn1c(C)ccc(NS(=O)(=O)Cc2ccccc2)c1=O
3. Cc1ncn(CC(=O)NC(C)(C)C)c1Cn1c(C)ccc(NS(=O)(=O)Cc2ccccc2)c1=O
4. Cc1ncn(CC(=O)NCC2CC2)c1Cn1c(C)ccc(NS(=O)(=O)Cc2ccccc2)c1=O
5. CCC(C)(C)NC(=O)Cn1cnc(C)c1Cn1c(C)ccc(NS(=O)(=O)Cc2ccccc2)c1=O

1: 8.74; 2: 9.17; 3: 9.44; 4: 8.96; 5: 9.72

For each of the compounds below, state pKi.
1. Cc1ncn(CC(=O)NN2CCCCC2)c1Cn1c(C)ccc(NS(=O)(=O)Cc2ccccc2)c1=O
2. CCNC(=O)Cn1cnc(C)c1Cn1c(C)ccc(NS(=O)(=O)Cc2ccccc2)c1=O
3. Cc1ncn(CC(=O)NCC(F)(F)F)c1Cn1c(C)ccc(NS(=O)(=O)Cc2ccccc2)c1=O

[9.19, 8.70, 9.08]

For Cc1ncn(CC(=O)NC2CCCNC2)c1CNC(=O)Cn1c(C)cnc(NCCc2ccccc2)c1=O (stereo not given) , what is its reported pKi? 8.92

###

- method description: Inhibition of trypsin
pKi: −log10 of the molar value.
Note to self: values exactly at 4 are met. So pKi at or above 4 is met, below is not met.

CCC(C)(C)NC(=O)Cn1cnc(C)c1Cn1c(C)ccc(NS(=O)(=O)Cc2ccccc2)c1=O = met
Cc1nc(N)ccc1CNC(=O)Cn1c(C)ccc(NS(=O)(=O)Cc2ccccc2)c1=O = met
Cc1ncn(CC(=O)NN2CCCCC2)c1Cn1c(C)ccc(NS(=O)(=O)Cc2ccccc2)c1=O = met

Alright, here's another compound for you.
Form field: pKi at least 4? Entry: Cc1ncn(CC(=O)NN2CC(O)C2)c1Cn1c(C)ccc(NS(=O)(=O)Cc2ccccc2)c1=O not met

###

- method description: Half life in dog at 1 mg/kg, po
- Type: ADME, organism-based, Canis lupus familiaris
- Parameters: dose 1 mg/kg, route oral
- condition notes: in vivo
measured quantity: half-life (h)
Give bare numbers, in h.

For Cc1nc(N)ccc1CNC(=O)Cn1c(C)ccc(NS(=O)(=O)Cc2ccccc2)c1=O [L-374087] , what is its reported half-life? 2.5

###

- method description: Half life in dog at 5 mg/kg, po
- Assay type: ADME, organism-based, Canis lupus familiaris
- Set-up: dose 5 mg/kg, route oral
- condition notes: in vivo
measured quantity: half-life

For Cc1ncn(CC(=O)NC2CCCNC2)c1CNC(=O)Cn1c(C)cnc(NCCc2ccccc2)c1=O (stereo unspecified) , what is its reported half-life? 1.6 h

###

- method description: Half life in dog at 0.5 mg/kg, po
- Assay type: ADME, organism-based, Canis lupus familiaris
- Parameters: dose 0.5 mg/kg, route oral
- condition notes: in vivo
measured quantity: half-life (h)
Give bare numbers, in h.

For Cc1nc(N)ccc1CNC(=O)Cn1c(C)ccc(NS(=O)(=O)Cc2ccccc2)c1=O , what is its reported half-life? 3.8

###

- System: Plasma
- method description: Anticoagulant potency in human plasma assessed as concentration required to double activated partial thromboplastin time
- Format: functional, cell-free
Note to self: values exactly at 0.5 µM are TRUE. So Activity at or above 0.5 µM is TRUE, below is FALSE.

Form field: Activity at least 0.5 µM? Entry: Cc1ncn(CC(=O)NCCO)c1Cn1c(C)ccc(NS(=O)(=O)Cc2ccccc2)c1=O TRUE

Now try Cc1ncn(CC(=O)NCC(F)(F)F)c1Cn1c(C)ccc(NS(=O)(=O)Cc2ccccc2)c1=O . TRUE

Now try Cc1ncn(CC(=O)NCCN)c1Cn1c(C)ccc(NS(=O)(=O)Cc2ccccc2)c1=O . FALSE

Now try Cc1nc(N)ccc1CNC(=O)Cn1c(C)ccc(NS(=O)(=O)Cc2ccccc2)c1=O . FALSE

###

- method description: Selectivity for thrombin over trypsin
Provide the recorded Selectivity ratio for the entries that follow.
Numbers only.

Observe how each entry below is paired with its result.
Cc1ncn(CC(=O)NC(C)(C)CN)c1Cn1c(C)ccc(NS(=O)(=O)Cc2ccccc2)c1=O = 233000
CCC(C)(C)NC(=O)Cn1cnc(C)c1Cn1c(C)ccc(NS(=O)(=O)Cc2ccccc2)c1=O = 180000
Cc1ncn(CC(=O)NCC(F)(F)F)c1Cn1c(C)ccc(NS(=O)(=O)Cc2ccccc2)c1=O = 59000
Cc1ncn(CC(=O)NN2CCOCC2)c1Cn1c(C)ccc(NS(=O)(=O)Cc2ccccc2)c1=O = 53000
Cc1ncn(CC(=O)NCC(C)(C)N)c1Cn1c(C)ccc(NS(=O)(=O)Cc2ccccc2)c1=O = 118000
Cc1nc(N)ccc1CNC(=O)Cn1c(C)ccc(NS(=O)(=O)Cc2ccccc2)c1=O [L-374087] = 6400

For each of the compounds below, state Selectivity ratio.
1. CCNC(=O)Cn1cnc(C)c1Cn1c(C)ccc(NS(=O)(=O)Cc2ccccc2)c1=O
2. Cc1ncn(CC(=O)NC2CC(N)C2)c1Cn1c(C)ccc(NS(=O)(=O)Cc2ccccc2)c1=O (configuration not stated)
3. Cc1ncn(CC(=O)NCCN)c1Cn1c(C)ccc(NS(=O)(=O)Cc2ccccc2)c1=O
4. Cc1ncn(CC(=O)NCCO)c1Cn1c(C)ccc(NS(=O)(=O)Cc2ccccc2)c1=O
5. Cc1ncn(CC(=O)NC2CC2)c1Cn1c(C)ccc(NS(=O)(=O)Cc2ccccc2)c1=O
6. Cc1ncn(CC(=O)OC(C)(C)C)c1Cn1c(C)ccc(NS(=O)(=O)Cc2ccccc2)c1=O
7. Cc1ncn(CC(=O)NN2CC(O)C2)c1Cn1c(C)ccc(NS(=O)(=O)Cc2ccccc2)c1=O
8. Cc1ncn(CC(=O)NCC2CC2)c1Cn1c(C)ccc(NS(=O)(=O)Cc2ccccc2)c1=O

[70000, 41000, 94000, 48000, 103000, 104000, 48000, 52000]

For each of the compounds below, state Selectivity ratio.
1. Cc1ncn(CC(=O)NN2CCCCC2)c1Cn1c(C)ccc(NS(=O)(=O)Cc2ccccc2)c1=O
2. Cc1ncn(CC(=O)NC(C)(C)C)c1Cn1c(C)ccc(NS(=O)(=O)Cc2ccccc2)c1=O
3. Cc1ncn(CC(=O)NC2CCCNC2)c1Cn1c(C)ccc(NS(=O)(=O)Cc2ccccc2)c1=O (configuration not stated)

[86000, 190000, 355000]

###

- method description: Cmax in dog at 5 mg/kg, po
- Assay type: ADME, organism-based, Canis lupus familiaris
- Set-up: dose 5 mg/kg, route oral
- condition notes: in vivo
measured quantity: Cmax (nM)
One number for each entry, in nM.

For Cc1ncn(CC(=O)NC2CCCNC2)c1CNC(=O)Cn1c(C)cnc(NCCc2ccccc2)c1=O (stereo unspecified) , what is its reported Cmax? 1460

###

Provide the recorded Ki for the entries that follow.
- method description: Inhibition of trypsin
Numbers only, in µM.

Observe how each entry below is paired with its result.
Cc1ncn(CC(=O)NCC(C)(C)N)c1Cn1c(C)ccc(NS(=O)(=O)Cc2ccccc2)c1=O = 80
Cc1ncn(CC(=O)NC2CCCNC2)c1Cn1c(C)ccc(NS(=O)(=O)Cc2ccccc2)c1=O (stereo not given) = 110
Cc1ncn(CC(=O)NC2CCCNC2)c1CNC(=O)Cn1c(C)cnc(NCCc2ccccc2)c1=O (stereo not given) = 18

For each of the compounds below, state Ki.
1. Cc1ncn(CC(=O)NCC(F)(F)F)c1Cn1c(C)ccc(NS(=O)(=O)Cc2ccccc2)c1=O
2. Cc1ncn(CC(=O)OC(C)(C)C)c1Cn1c(C)ccc(NS(=O)(=O)Cc2ccccc2)c1=O
3. Cc1ncn(CC(=O)NC(C)(C)C)c1Cn1c(C)ccc(NS(=O)(=O)Cc2ccccc2)c1=O

[49, 50, 68]

For each of the compounds below, state Ki.
1. Cc1ncn(CC(=O)NC(C)(C)CN)c1Cn1c(C)ccc(NS(=O)(=O)Cc2ccccc2)c1=O
2. Cc1ncn(CC(=O)NCC2CC2)c1Cn1c(C)ccc(NS(=O)(=O)Cc2ccccc2)c1=O
3. Cc1ncn(CC(=O)NC2CC(N)C2)c1Cn1c(C)ccc(NS(=O)(=O)Cc2ccccc2)c1=O (stereo not given)
4. Cc1nc[nH]c1CNC(=O)Cn1c(C)ccc(NS(=O)(=O)Cc2ccccc2)c1=O
5. Cc1ncn(CC(=O)NC2CC2)c1Cn1c(C)ccc(NS(=O)(=O)Cc2ccccc2)c1=O
6. Cc1ncn(CC(=O)NCCN)c1Cn1c(C)ccc(NS(=O)(=O)Cc2ccccc2)c1=O
7. Cc1ncn(CC(=O)NCCO)c1Cn1c(C)ccc(NS(=O)(=O)Cc2ccccc2)c1=O

70
57
122
43
185
85
115

For each of the compounds below, state Ki.
1. CCNC(=O)Cn1cnc(C)c1Cn1c(C)ccc(NS(=O)(=O)Cc2ccccc2)c1=O
2. Cc1ncn(CC(=O)NN2CCOCC2)c1Cn1c(C)ccc(NS(=O)(=O)Cc2ccccc2)c1=O

[137, 101]
